Recorded viability, T/C, one value per entry.
- Test system: 521955-158-R6-J3-PDC complex spheroid growth, % test/control;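 further: spheroids exposed to compounds for 7 days; 100% = DMSO vehicle control wells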
- ASSAY_METHOD_TEXT: Anticancer human tumor 521955-158-R6-J3-PDC patient-derived pancreatic carcinoma cell line growth inhibition [Asc]
- TEST_SETTINGS: second compound 0.316 µM; first compound 0.00949 µM; active compounds read low
The response must be a number in % with no trailing unit.

1. NC(=O)C(=Cn1cnc(-c2cc(C(F)(F)F)cc(C(F)(F)F)c2)n1)c1cncnc1 + CNC(C)C(=O)NC1CN(S(=O)(=O)c2cccc(S(=O)(=O)N3CCC4CCC(C(=O)NC(c5ccccc5)c5ccccc5)N4C(=O)C(NC(=O)C(C)NC)C3)c2)CCC2CCC(C(=O)NC(c3ccccc3)c3ccccc3)N2C1=O ... 70.3
2. CCN1C(C(=O)NC23CCC(C(=O)O)(CC2)CC3)C(c2cccc(Cl)c2F)C2(C(=O)Nc3cc(Cl)ccc32)C12CCCCC2 (centres undefined) + Cc1c(S(C)(=O)=O)c(-c2cc(F)cc(N3CCN(c4ccc(NS(=O)(=O)c5ccc(NC(CCN6CCC(C(=O)OCCCP(=O)(O)O)CC6)CSc6ccccc6)c(S(=O)(=O)C(F)(F)F)c5)cc4)CC3)c2)c(-c2ccc(Cl)cc2)n1C(C)C ... 49.2
3. NC(=O)C(=Cn1cnc(-c2cc(C(F)(F)F)cc(C(F)(F)F)c2)n1)c1cncnc1 + Cc1c(S(C)(=O)=O)c(-c2cc(F)cc(N3CCN(c4ccc(NS(=O)(=O)c5ccc(NC(CCN6CCC(C(=O)OCCCP(=O)(O)O)CC6)CSc6ccccc6)c(S(=O)(=O)C(F)(F)F)c5)cc4)CC3)c2)c(-c2ccc(Cl)cc2)n1C(C)C ... 47.2

Then there is this compound:
Per the record, Cc1nc(N2CCC3(CC2)COC(C)C3N)c(CO)nc1Sc1ccnc(N)c1Cl (centres undefined) + Cc1c(S(C)(=O)=O)c(-c2cc(F)cc(N3CCN(c4ccc(NS(=O)(=O)c5ccc(NC(CCN6CCC(C(=O)OCCCP(=O)(O)O)CC6)CSc6ccccc6)c(S(=O)(=O)C(F)(F)F)c5)cc4)CC3)c2)c(-c2ccc(Cl)cc2)n1C(C)C has viability, T/C of 42.6
